# experiment_notes: CEETOX_H295R_MTT_cell_viability: Viability Assessment in the CeeTox HT-H295R MTT Assay (AID 2283718)
The source made the active and inactive calls. How the source made its calls: active means hit-call score of the fitted dose curve at least 0.9, where 1 is the maximum; inactive means score below 0.9.
Result category, one only: YES = active, NO = inactive

Could you kindly confirm the outcome this assay logged for CC12CC1(C)C(=O)N(c1cc(Cl)cc(Cl)c1)C2=O (stereo not given) ?
NO

Could you kindly confirm the outcome this assay logged for "CN(CCCC(=O)c1cccnc1)N=O" ?
NO

Answer briefly: the call reported for "C[C@]12CC[C@H](O)CC1=CC[C@@H]1[C@@H]2CC[C@]2(C)C(=O)CC[C@@H]12" in this assay.
NO

Which outcome was entered for the compound "Cn1sc(Cl)cc1=O" in this test?
NO

What did this assay record as the result for "COc1cc(-c2ccc(N)c(OC)c2)ccc1N" ?
NO

Could you kindly confirm the outcome this assay logged for "COP(=O)(OC)O/C(=C\Cl)c1cc(Cl)c(Cl)cc1Cl" ?
NO

Tell me the recorded outcome of this test for "C1CCC(NC2CCCCC2)CC1" .
NO

Tell me the assay call for "Nc1ccc(-c2ccc(N)c(Cl)c2)cc1Cl" please.
NO

Status in this test for "CCOP(=S)(OCC)Oc1nc(Cl)c(Cl)cc1Cl" ?
YES

Any idea what this test logged for "C[C@]12CCC(=O)C[C@@H]1CC[C@@H]1[C@@H]2CC[C@]2(C)[C@@H](O)CC[C@@H]12" ?
NO

I'd appreciate the recorded outcome for "C[C@H]1CCCC(=O)CCC/C=C/c2cc(O)cc(O)c2C(=O)O1" from this test.
YES

Hi, do you know how "O=C(Cc1ccccc1)c1ccccc1" came out in this test?
NO

What did the test return for "O=C(OC1CCCCC1)c1ccccc1C(=O)OC1CCCCC1" ?
YES

Entry "CC(C)OC(=O)Nc1ccccc1" : call = ?
YES

Record lookup: outcome of this test for "CCCCCCCCC(=O)NCc1ccc(O)c(OC)c1" ?
NO

----------
# experiment_notes: ATG_PPRE_CIS: Attagene CIS-FACTORIAL HepG2 Assay for human Peroxisome Proliferator-activated Response Element (PPRE) (AID 2282958)
# condition_summary: HepG2 PPRE cis-element reporter, Attagene transcription factor profiling; actives raise or lower the signal
Activity calls are given as the source filed them. How the source made its calls: active means hit-call score of the fitted dose curve at least 0.9, where 1 is the maximum; inactive means score below 0.9.
Respond only with the outcome that fits, drawn from YES = active, NO = inactive

What was the test verdict on "CCCCCCCCC(=O)NCc1ccc(O)c(OC)c1" ?
NO

# outcome recorded in this test, key = "OCc1ccco1"
NO

# outcome recorded in this test, key = Clc1ccc(C2(Cn3cncn3)CC(Br)CO2)c(Cl)c1 (centres undefined)
YES

Please indicate how the test categorized CCSC(C)CC1CC(=O)C(C(CC)=NOC/C=C/Cl)=C(O)C1 (centres undefined) .
NO

Assay outcome for "CCOC(=O)/C=C(C)/C=C/C[C@@H](C)CCCC(C)C" : what was it?
NO

Fill in: this test's call for "Nc1ccc(N=Nc2ccc(-c3ccc(N=Nc4c(S(=O)(=O)O)cc5cc(S(=O)(=O)O)c(N=Nc6ccccc6)c(O)c5c4N)cc3)cc2)c(N)c1" is ___
NO

What did the test return for "C(=NC1CCCCC1)=NC1CCCCC1" ?
YES

Query: recorded result category for "CCOP(=S)(OCC)SCCS(=O)(=O)CC" in this test
NO

Any idea what this test logged for "COP(=O)(OC)O/C(=C\Cl)c1cc(Cl)c(Cl)cc1Cl" ?
YES

Can you look up the reported call for "ClCCBr" for me?
NO

Could you please tell me the result logged for "Nc1cccc2ccccc12" in this assay?
NO

I'd appreciate the recorded outcome for "O=C(CCl)CCl" from this test.
NO

What did this assay record as the result for "O=Cc1cccc(Oc2ccccc2)c1" ?
NO

Answer briefly: the call reported for CC12CC1(C)C(=O)N(c1cc(Cl)cc(Cl)c1)C2=O (centres undefined) in this assay.
NO

Hi team, can someone confirm the assay call for "CCC[CH2][Sn]([Cl])([Cl])[Cl]" ?
NO

Tell me the recorded outcome of this test for "COc1cccc(C=O)c1" .
NO

# lookup: test call for "O=P(O)(O)CN(CP(=O)(O)O)CP(=O)(O)O"
NO

Lab log entry: "ClCc1ccccn1" — outcome as called in the assay?
NO

In this assay, the call recorded for "CN(C)P(=O)(N(C)C)N(C)C" was what?
NO

Lab log entry: CNC(=O)O/N=C/C(C)(C)S(C)=O (centres undefined) — outcome as called in the assay?
NO

Any idea what this test logged for "CCc1ccccc1N" ?
NO

Name the outcome recorded for "CCCCCCCCc1ccc(O)cc1" in the assay.
NO

Kindly provide the recorded test outcome for the following compound: CCCCC(CC)CO[N+](=O)[O-] (centres undefined)
NO

Entry "COC[C@H](C)N(C(=O)CCl)c1c(C)csc1C" : call = ?
NO

Record lookup: outcome of this test for CC(=O)OC(c1ccccc1)C(Cl)(Cl)Cl (centres undefined) ?
NO

Test call for this compound, please: "Oc1c(I)cc(I)cc1I"
YES

For "O=C(c1ccccc1)C(Cl)Cl" , which call appears in the assay record?
NO

What is the recorded call for this compound in the test? "BrCCBr"
NO

Short answer needed: outcome of this test for ClC1(Cl)C2(Cl)C3(Cl)C4(Cl)C(Cl)(Cl)C5(Cl)C3(Cl)C1(Cl)C5(Cl)C24Cl (centres undefined) ?
NO

----------
# Read-out: Urokinase-type plasminogen activator receptor (uPAR), PLAUR (gene 5329)
# experiment_notes: BSK_CASM3C_uPAR: BioMAP Diversity Plus: CASM3C Assay for Urokinase-type plasminogen activator receptor (uPAR) Biomarker Activity (AID 2283054);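 further: cell-surface uPAR protein level quantified by ELISA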
# condition_summary: primary human coronary artery smooth muscle cells; actives raise or lower the signal
The source made the active and inactive calls. Rule for the calls: active = hit-call score of the fitted dose curve at least 0.9, where 1 is the maximum; inactive = score below 0.9.
Result category, one only: label 1 for active, label 0 for inactive

Please let me know the test result on file for "CCC(C)(C)c1ccc(O)c(C(C)(C)CC)c1" .
label 1

Kindly provide the recorded test outcome for the following compound: "COP(=S)(OC)Oc1c(Cl)cc(C)cc1Cl"
label 0

Identify the outcome logged in this assay for the compound shown: "CCOP(=S)(OCC)SCCS(=O)(=O)CC"
label 0

What is the recorded call for this compound in the test? "CC1(C)Cc2cccc(O)c2O1"
label 0

Dear colleague, could you share the recorded outcome for "NC(=S)Nc1ccccc1" when you have a moment?
label 0

So what was the verdict on "CCOP(=S)(OCC)SCSP(=S)(OCC)OCC" in this test?
label 0

Answer briefly: the call reported for "CCCCCCCCC(=O)NCc1ccc(O)c(OC)c1" in this assay.
label 1

Can you look up the reported call for "Nc1ccc(-c2ccc(N)c(Cl)c2)cc1Cl" for me?
label 0

Given "Oc1ccc(-c2ccccc2)cc1" , state the outcome it received in this test.
label 0

Record request — test call for CC(=O)C(Cl)C(=O)N(C)C (configuration not stated)
label 0

Hi, sorry to bother you, what did the test record for "Nc1ncc([N+](=O)[O-])s1" ?
label 0

Answer briefly: the call reported for "CC(=O)[O][Hg][c]1ccccc1" in this assay.
label 1

Please share the test call associated with "COc1cc(-c2ccc(N)c(OC)c2)ccc1N" .
label 0

Please let me know the test result on file for "C[C@]12CCC(=O)C[C@@H]1CC[C@@H]1[C@@H]2CC[C@]2(C)[C@@H](O)CC[C@@H]12" .
label 0

Look up the recorded call for "C=C(C)C(=O)[O][Sn]([CH2]CCC)([CH2]CCC)[CH2]CCC" in this test.
label 1

Write down the call the test reported for this compound. Item: "Oc1cccc2cccnc12"
label 0

# fetch the recorded call for "O=[N+]([O-])c1ccc(O)c([N+](=O)[O-])c1" here
label 0

Query: recorded result category for "COP(=S)(OC)Oc1ccc(Sc2ccc(OP(=S)(OC)OC)cc2)cc1" in this test
label 0

Tell me the recorded outcome of this test for "CC(C)(C)c1cc(O)ccc1O" .
label 0

What is the recorded call for this compound in the test? "CCOP(=S)(OCC)Oc1nc(Cl)c(Cl)cc1Cl"
label 0

Entry "CC(C)(OO)c1ccccc1" : call = ?
label 0

Hi team, can someone confirm the assay call for "COc1cc(OC)nc(NC(=O)NS(=O)(=O)c2ncccc2C(=O)N(C)C)n1" ?
label 0

----------
# Read-out: Urokinase-type plasminogen activator receptor (uPAR), PLAUR (gene 5329)
# experiment_notes: BSK_4H_uPAR: BioMAP Diversity Plus: 4H Assay for Urokinase-type plasminogen activator receptor (uPAR) Biomarker Activity (AID 2283030)
# condition_summary: primary human endothelial cells (HUVEC); actives raise or lower the signal
Calls of active or inactive are those of the source. How the source made its calls: active means hit-call score of the fitted dose curve at least 0.9, where 1 is the maximum; inactive means score below 0.9.
Reply using exactly one outcome from True = active, False = inactive

Any idea what this test logged for "O=C(Nc1ccc2[nH]ccc2c1)c1cc2cc(F)ccc2n1Cc1cccc(F)c1" ?
True

I'd appreciate the recorded outcome for "CCC(C)(C)c1ccc(O)c(C(C)(C)CC)c1" from this test.
True

Name the outcome recorded for "C(=NC1CCCCC1)=NC1CCCCC1" in the assay.
True

# fetch the recorded call for "Oc1ccc(-c2ccccc2)cc1" here
False

Answer briefly: the call reported for "COc1cc(-c2ccc(N)c(OC)c2)ccc1N" in this assay.
False

Could you check what this test reported for CCC(=O)C(CC(C)N(C)C)(c1ccccc1)c1ccccc1 (configuration not stated) ?
False

Which outcome was assigned to "O=[N+]([O-])c1ccc2c3c(cccc13)CC2" in this test?
False

Provenance of the data: PubChem BioAssay (EPA / NIEHS)
